The reported measurements were obtained from patent US20060128662A1.

tested on: FSK-4 cells; assay: Assay (I): Glucose utilisation in a human epithelia cell line (FSK4 cells), D-(6-3H(N))-glucose; type: cell-based; conditions: 24 hours incubation, Hill equation, read-out: GlucosFSK4 EC50
pEC50: −log10 of the molar value.
experimentalReadout: pEC50

Answered examples (5):
Which pEC50 is reported with FSK-4 cells for this entry: COc1ccc(S(=O)(=O)/C(C#N)=C/c2cc(C(C)(C)C)c(O)c(C(C)(C)C)c2)cc1OC ?
5.82

Which pEC50 is reported with FSK-4 cells for this entry: CC(O)CN(CC(C)O)C(=O)c1ccc(S(=O)(=O)/C(C#N)=C/c2cc(C(C)(C)C)c(O)c(C(C)(C)C)c2)cc1 (centres unmarked) ?
5.00

Which pEC50 is reported with FSK-4 cells for this entry: CC(C)(C)c1cc(/C=C(\C#N)S(=O)(=O)c2ccc([N+](=O)[O-])cc2)cc(C(C)(C)C)c1O ?
5.85

Which pEC50 is reported with FSK-4 cells for this entry: C/C(=C(/C#N)S(=O)(=O)c1ccc(Cl)cc1)c1cc(C(C)(C)C)c(O)c(C(C)(C)C)c1 ?
5.00

Which pEC50 is reported with FSK-4 cells for this entry: CC(C)(C)c1cc(/C=C(\C#N)S(=O)(=O)c2ccccc2C(=O)N2CCOCC2)cc(C(C)(C)C)c1O ?
5.52

P: CN1CCN(C(=O)c2ccc(S(=O)(=O)/C(C#N)=C/c3cc(C(C)(C)C)c(O)c(C(C)(C)C)c3)cc2)CC1
Q: Cc1ccc(S(=O)(=O)/C(C#N)=C/c2cc(C(C)(C)C)c(O)c(C(C)(C)C)c2)cc1
Smaller pEC50 value? Options are P and Q Write the label of whichever entry you select.
P

A: COCCN(CCOC)C(=O)c1ccc(S(=O)(=O)/C(C#N)=C/c2cc(C(C)(C)C)c(O)c(C(C)(C)C)c2)cc1
B: CC(C)c1ccc(S(=O)(=O)/C(C#N)=C/c2cc(C(C)(C)C)c(O)c(C(C)(C)C)c2)cc1
Smaller pEC50 value? Options are A and B Write the label of whichever entry you select.
A

A: CC(C)(C)c1cc(/C=C(\C#N)S(=O)(=O)c2ccc(Cl)cc2)cc([N+](=O)[O-])c1O
B: CC(C)(C)c1cc(/C=C(\C#N)S(=O)(=O)c2cccc(C(=O)N3CCOCC3)c2)cc(C(C)(C)C)c1O
C: CC(C)(C)c1cc(/C=C(\C#N)S(=O)(=O)/C(C#N)=C/c2cc(C(C)(C)C)c(O)c(C(C)(C)C)c2)cc(C(C)(C)C)c1O
Arrange the 3 compounds by rising pEC50, starting with the smallest. The labels, placed in the requested order, form the answer.
A, B, C
(A: 5.22, B: 5.52, C: 6.40)

* * *

tested on: FSK-4 cells; experiment: Assay (I): Glucose utilisation in a human epithelia cell line (FSK4 cells), D-(6-3H(N))-glucose; format: cell-based; settings: 24 hours incubation, Hill equation, read-out: GlucosFSK4 EC50
experimentalReadout: EC50 (nM)

Answered examples (4):
Which EC50 is reported with FSK-4 cells for this entry: CC(C)(C)c1cc(/C=C(\C#N)S(=O)(=O)c2ccc(C(=O)N(CCO)CCO)cc2)cc(C(C)(C)C)c1O [Example 26] ?
3700

Which EC50 is reported with FSK-4 cells for this entry: CC(C)(C)c1cc(/C=C(\C#N)S(=O)(=O)Cc2ccc(Cl)cc2)cc(C(C)(C)C)c1O [Example 24] ?
700

Which EC50 is reported with FSK-4 cells for this entry: CC(C)(C)c1cc(/C=C(\C#N)S(=O)(=O)c2cccc(OC(F)(F)F)c2)cc(C(C)(C)C)c1O [Example 39] ?
500

Which EC50 is reported with FSK-4 cells for this entry: CC(C)(C)c1cc(/C=C(\C#N)S(=O)(=O)c2ccc(/C=C/c3ccccc3)cc2)cc(C(C)(C)C)c1O [Example 51] ?
900

a: CC(C)(C)c1cc(/C=C(\C#N)S(=O)(=O)c2cccc3ccccc23)cc(C(C)(C)C)c1O [Example 30]
b: Cn1ccnc1S(=O)(=O)/C(C#N)=C/c1cc(C(C)(C)C)c(O)c(C(C)(C)C)c1 [Example 6]
Smaller EC50 value? Options are a and b Write the label of whichever entry you select.
a

* * *

tested on: FSK-4 cells; assay: Assay (I): Glucose utilisation in a human epithelia cell line (FSK4 cells), D-(6-3H(N))-glucose; type: cell-based; conditions: 24 hours incubation, Hill equation, read-out: GlucosFSK4 EC50
experimentalReadout: EC50 (nM)

Answered examples (2):
Consider the molecule CC(C)(C)c1cc(/C=C(\C#N)S(=O)(=O)c2ccc(S(C)(=O)=O)cc2)cc(C(C)(C)C)c1O [Example 38] and give its measured EC50.
700

Consider the molecule CC1CN(C(=O)c2ccc(S(=O)(=O)/C(C#N)=C/c3cc(C(C)(C)C)c(O)c(C(C)(C)C)c3)cc2)CC(C)O1 (stereo not shown) [Example 18] and give its measured EC50.
1700

a: CC(C)(C)c1cc(/C=C(\C#N)S(=O)(=O)c2ccc(OC(F)(F)F)cc2)cc(C(C)(C)C)c1O [Example 11]
b: CC(C)(C)c1cc(/C=C(\C#N)S(=O)(=O)c2ccc(Cl)cn2)cc(C(C)(C)C)c1O [Example 41]
Endpoint returns the identifier whose EC50 is numerically larger, either a or b . Write the label of whichever entry you select.
a

* * *

test system: FSK-4 cells; assay: Assay (I): Glucose utilisation in a human epithelia cell line (FSK4 cells), D-(6-3H(N))-glucose; format: cell-based; settings: 24 hours incubation, Hill equation, read-out: GlucosFSK4 EC50
experimentalReadout: EC50 (nM)

Consider the molecule CC(C)(C)c1cc(/C=C(\C#N)S(=O)(=O)c2ccc(C3CC=CO3)cc2)cc(C(C)(C)C)c1O (stereo not shown) [Example 49] and give its measured EC50.
2200

Consider the molecule COc1cccc(S(=O)(=O)/C(C#N)=C/c2cc(C(C)(C)C)c(O)c(C(C)(C)C)c2)c1 [Example 47] and give its measured EC50.
800

Consider the molecule CC(C)CO/C=C/c1ccc(S(=O)(=O)/C(C#N)=C/c2cc(C(C)(C)C)c(O)c(C(C)(C)C)c2)cc1 [Example 52] and give its measured EC50.
1000

P: COc1ccc(S(=O)(=O)/C(C#N)=C/c2cc(C(C)(C)C)c(O)c(C(C)(C)C)c2)cc1 [Example 46]
Q: CC(C)(C)c1cc(/C=C(\C#N)S(=O)(=O)c2ccc(C(=O)NCCO)cc2)cc(C(C)(C)C)c1O [Example 17]
R: CC(C)(C)c1ccc(S(=O)(=O)/C(C#N)=C/c2cc(C(C)(C)C)c(O)c(C(C)(C)C)c2)cc1 [Example 29]
S: CC(C)(C)c1cc(/C=C(\C#N)S(=O)(=O)c2ccc(C(=O)N3CCOCC3)cc2)cc(C(C)(C)C)c1O [Example 19]
# sort list by recorded EC50, greatest to least The labels, placed in the requested order, form the answer.
Q, S, R, P
